- Test system: L6-myotubes
- Protocol details: Glucose uptake in differentiated L6-myotubes (Biological Example 2)
- Assay type: cell-based
- Condition notes: glucose uptake; compound at 10 μM relative to isoproterenol at 10 μM; read-out: Biological example 2 (GU)
Assay readout: Emax at 10 µM

CCCC(C)NCC(O)c1cccc(O)c1 (stereo not shown) [Compound 14]; > 75%
CCCCNCC(O)c1cc[nH]c(=O)c1 (stereo not shown) [Compound 62]; 25 to 50%
CCC[C@@H]1CC[C@@H]([C@H](O)c2cccc(F)c2)N1 [Compound 132]; 25 to 50%
CCC[C@@H]1CCC[C@@H]([C@H](O)c2cccc(O)c2)N1 [Compound 136]; > 75%

Hi team, please reply with Emax at 10 µM for each item in this list.
1. CCC[C@H]1CCC[C@H]([C@H](O)c2cccc(F)c2)N1 [Compound 69]
2. CCCCNC[C@H](O)c1ccccc1F [Compound 79]
3. CC1(C)CC[C@H]([C@H](O)c2cncc(F)c2)N1 [Compound 157]
4. CC1(C)CC[C@H]([C@H](O)c2ccc(F)cc2)N1 [Compound 173]
5. CC1(C)CCC[C@H]([C@H](O)c2cccc(Cl)c2)N1 [Compound 165]
6. O[C@@H](CNC1(C(F)(F)F)CC1)c1cccc(F)c1 [Compound 118]

(A)
50 to 75%
> 75%
> 75%
50 to 75%
25 to 50%
50 to 75%

Hi team, please reply with Emax at 10 µM for each item in this list.
1. CCC[C@H]1CCC[C@H]([C@H](O)c2ccc(F)c(F)c2)N1 [Compound 67]
2. CCCCNCC(O)c1cc(F)c(N)c(F)c1 (stereo not shown) [Compound 37]

(A)
["25 to 50%", "> 75%"]

Hi team, please reply with Emax at 10 µM for each item in this list.
1. CCC12CCC([C@@H](O)c3cccc(F)c3)(CC1)N2 [Compound 182]
2. Oc1ccc(C(O)CNCC2CCCCC2)cc1 (stereo not shown) [Compound 6]
3. Cc1c(F)cccc1[C@@H](O)CNC(C)(C)C [Compound 150]
4. CCCCNCC(O)c1cccc(O)c1 (stereo not shown) [Compound 15]
5. CC1(C)CC[C@H]([C@H](O)c2cccc(Cl)c2)N1 [Compound 154]
6. CC(C)(C)NC[C@H](O)c1ccc(Cl)cn1 [Compound 147]
7. CC1(C)CCC[C@H]([C@H](O)c2ccccc2Cl)N1 [Compound 162]
8. CC12CCC([C@H](O)c3ccccc3F)(CC1)N2 [Compound 181]

(A)
1: < 25%; 2: > 75%; 3: > 75%; 4: 50 to 75%; 5: > 75%; 6: 25 to 50%; 7: 25 to 50%; 8: > 75%

* * *

Can you tell me Emax at 10 µM for the items I'm about to list?
- Tested on: L6-myotubes
- Protocol details: Glucose uptake in differentiated L6-myotubes (Biological Example 2)
- Type: cell-based
- Condition notes: glucose uptake in differentiated L6-myotubes; compound at 10 μM, activity relative to isoproterenol at 10 μM; read-out: Biological example 2 (GU)

Past entries and their recorded results:
CO[C@H]1CC[C@H](C[C@H]2CC[C@H]([C@H](O)c3cccc(F)c3)N2)CC1; > 75%
O[C@H](c1cccc(F)c1)C12CCC(CCc3ccc(OC(F)(F)F)cc3)(CC1)N2; < 25%
COC(=O)[C@H]1CC[C@H](C(C)(C)NC[C@H](O)c2cccc(F)c2)CC1; > 75%

Please examine the following record next.
(Q) Write down the reported Emax at 10 µM of "O[C@@H](c1cccc(F)c1)C12CCC(CCc3cccnc3)(CC1)N2" , test system: L6-myotubes.
(A) > 75%

* * *

- Tested on: L6-myotubes
- Protocol details: Glucose uptake in differentiated L6-myotubes (Biological Example 2)
- Format: cell-based
- Condition notes: glucose uptake in differentiated L6-myotubes; compound at 10 μM, activity relative to isoproterenol at 10 μM; read-out: Biological example 2 (GU)
Assay readout: Emax at 10 µM

Past entries and their recorded results:
O[C@@H](CNCC[C@H]1CC[C@@H](O)CC1)c1cccc(F)c1 [Compound 297]; 50 to 75%
CO[C@H]1CC[C@H](C(C)(C)NC[C@H](O)c2cccc(F)c2)CC1 [Compound 239]; > 75%

Hi team, please reply with Emax at 10 µM for each item in this list.
1. CN(C)C(=O)N[C@H]1CC[C@H](CC(C)(C)NC[C@H](O)c2cccc(F)c2)CC1 [Compound 430]
2. CC(C)(C[C@H]1CC[C@@H](NS(C)(=O)=O)CC1)NC[C@H](O)c1cncc(F)c1 [Compound 468]
3. CC(C)(NC[C@H](O)c1cccc(F)c1)[C@H]1CC[C@H](N)CC1 [Compound 381]

(A)
1: > 75%; 2: > 75%; 3: 50 to 75%

* * *

- System: L6-myotubes
- Protocol details: Measurement of intracellular cAMP levels in differentiated L6-myotubes (Biological Example 3)
- Type: cell-based
- Condition notes: 0.25 h, intracellular cAMP in differentiated L6-myotubes; compound at 10 μM, activity relative to isoproterenol at 10 μM
Assay readout: Emax at 10 µM

Hi team, please reply with Emax at 10 µM for each item in this list.
1. CS(=O)(=O)N[C@H]1CC[C@@H](CNC[C@H](O)c2cccc(F)c2)CC1 [Compound 312]
2. CC1(C)CC[C@H]([C@@H](O)c2cc(F)c(N)c(F)c2)N1 [Compound 236]
3. CO[C@H]1CC[C@H](C[C@H]2CC[C@H]([C@H](O)c3ccccc3F)N2)CC1 [Compound 339]
4. COC(=O)[C@H]1CC[C@H](CCC(C)(C)NC[C@H](O)c2cncc(F)c2)CC1 [Compound 342]

(A)
< 25%
25 to 50%
< 25%
< 25%

* * *

- Test system: L6-myotubes
- Protocol details: Glucose uptake in differentiated L6-myotubes (Biological Example 2)
- Format: cell-based
- Condition notes: glucose uptake; compound at 10 μM relative to isoproterenol at 10 μM; read-out: Biological example 2 (GU)
- Excerpt: Compounds described in publications referenced and incorporated herein were screened in accordance with the procedures outlined in Biological example 2 and Biological example 3. […]
Assay readout: Emax at 10 µM

CC1(C)CCC[C@@H]([C@@H](O)c2ccccc2F)N1 [Compound 192]; 25 to 50%
CCCCNCC(O)c1ccncc1 (stereo not drawn) [Compound 48, 2-(butylamino)-1-(4-pyridyl)-1-ethanol]; 25 to 50%
CC1(C)CCC[C@@H]([C@H](O)c2cccc(F)c2)N1 [Compound 190]; > 75%
CC12CC(C1)[C@@H]([C@H](O)c1cccc(F)c1)N2 [Compound 188]; < 25%

Hi team, please reply with Emax at 10 µM for each item in this list.
1. CCCC(C)NCC(O)c1cc(Cl)c(N)c(Cl)c1 (stereo not drawn) [Compound 22]
2. CCCC(C)NCC(O)c1ccc(Cl)c(O)c1 (stereo not drawn) [Compound 35]
3. CCC[C@H]1CCC[C@@H]([C@H](O)c2cccc(F)c2)N1 [Compound 120]
4. O[C@H](c1cccc(F)c1)[C@H]1CCC2(CC2)N1 [Compound 170]
5. CCCCNC[C@H](O)c1cccc(F)c1F [Compound 77]

(A)
> 75%
> 75%
50 to 75%
50 to 75%
> 75%

* * *

- Test system: L6-myotubes
- Protocol details: Glucose uptake in differentiated L6-myotubes (Biological Example 2)
- Assay type: cell-based
- Condition notes: glucose uptake; compound at 10 μM relative to isoproterenol at 10 μM; read-out: Biological example 2 (GU)
Can you tell me Emax at 10 µM for the items I'm about to list?

Past entries and their recorded results:
CC1(C)CC[C@@H]([C@H](O)c2cccc(F)c2)N1; < 25%
CCC[C@@H]1CCC[C@H]([C@H](O)c2ccc(F)cc2)N1; 50 to 75%
CC12CCC([C@H](O)c3cncc(F)c3)(CC1)N2; > 75%
CCC[C@@H]1CCC[C@@H]([C@H](O)c2cccc(Cl)c2)N1; > 75%
CC1(NC[C@H](O)c2cccc(F)c2)CCC1; > 75%
CC1(C)CC[C@H]([C@@H](O)c2ccccc2F)N1; < 25%

Hi team, please reply with Emax at 10 µM for each item in this list.
1. CC1(C)CC[C@@H]([C@@H](O)c2cccc(O)c2)N1
2. CC1(C)CCC([C@H](O)c2ccccc2F)N1 (stereo in doubt)
3. CCCCNCC(O)c1cc(Cl)c(N)c(C(F)(F)F)c1 (stereo not drawn)

(A)
1: < 25%; 2: > 75%; 3: > 75%

* * *

Can you tell me Emax at 10 µM for the items I'm about to list?
- Test system: L6-myotubes
- Protocol details: Glucose uptake in differentiated L6-myotubes (Biological Example 2)
- Type: cell-based
- Condition notes: glucose uptake in differentiated L6-myotubes; compound at 10 μM, activity relative to isoproterenol at 10 μM; read-out: Biological example 2 (GU)

Past entries and their recorded results:
CC(C)(C[C@H]1CC[C@H](C(=O)O)CC1)NC[C@H](O)c1cncc(F)c1 [Compound 356]; < 25%
COc1ccc(C[C@@H]2CC[C@H]([C@@H](O)c3cncc(F)c3)N2)cc1 [Compound 377]; > 75%
CC(C)(CC[C@H]1CC[C@@H](C(=O)O)CC1)NC[C@H](O)c1cccc(F)c1 [Compound 352]; 25 to 50%

Please examine the following record next.
(Q) # input compound: O[C@@H](CNCCC[C@H]1CC[C@@H](OCc2ccccc2)CC1)c1cccc(F)c1 [Compound 277] ; wanted: its Emax at 10 µM
(A) 25 to 50%
